Experimental System: human IL-21R expressed on cells (human, UniProt Q9HBE5 20-538)
Sequence (Q9HBE5 20-538 limits assumed): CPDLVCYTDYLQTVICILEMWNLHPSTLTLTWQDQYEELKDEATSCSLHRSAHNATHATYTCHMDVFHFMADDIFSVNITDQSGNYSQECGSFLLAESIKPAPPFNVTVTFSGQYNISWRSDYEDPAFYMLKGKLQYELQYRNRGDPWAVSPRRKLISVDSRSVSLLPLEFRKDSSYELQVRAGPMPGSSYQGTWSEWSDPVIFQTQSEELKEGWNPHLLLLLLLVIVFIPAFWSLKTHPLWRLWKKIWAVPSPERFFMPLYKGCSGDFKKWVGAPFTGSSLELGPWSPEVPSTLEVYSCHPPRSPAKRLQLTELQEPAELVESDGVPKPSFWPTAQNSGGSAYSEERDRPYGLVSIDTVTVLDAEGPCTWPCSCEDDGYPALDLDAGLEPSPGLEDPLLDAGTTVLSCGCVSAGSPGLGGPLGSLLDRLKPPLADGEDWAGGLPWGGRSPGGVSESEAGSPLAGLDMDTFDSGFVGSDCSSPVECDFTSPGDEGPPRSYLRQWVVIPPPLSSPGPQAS
Procedure Details: cell-based or functional assay
Listing: IC50 (nM) in Human IL-21R-TF1 Neutralization Assay of selected binders
API: value field is a number in nM; no unit string.

The examples below pair each entry with its known result.
scFv H4 (scFv) scFv: QVQLQESGPGLVKTSETLSLTCAVSGYSISSGYYWGWIRQPPGKGLEWIGSISHTGNTYYNPPLKSRVTISVDTSKNQFSLKLSSVTAADTAVYYCARWLGFGRPEYWGKGTLVTVSSGGGGSGGGGSGGGGSALSSELTQDPPVSVALGQTVTLTCQGDSLRTYYASWYQQKSGQAPILLLYGKHKRPSGIPDRFSGSTSGDTASLTITGAQAEDEADYYCNSRDSSGNPHVLFGGGTQLTVL : 9.3
scFv L19 (scFv) scFv: QVQLQESGPGLVKTSETLSLTCAVSGYSISSGYYWGWIRQPPGKGLEWIGSISHTGNTYYNPPLKSRVTISVDTSKNQFSLKLSSVTAADTAVYYCARGGGISRPEYWGKGTLVTVSSGGGGSGGGGSGGGGSALSSELTQDPPVSVALGQTVTLTCQGDSLRTYYASWYQQKSGQAPILLLYGKHKRPSGIPDRFSGSTSGDTASLTITGAQAEDEADYYCVARAVRGNPHVLFGGGTQLTVL : 35.3

Now turn to the next binder.
Query: Answer with the recorded IC50 (nM) in Human IL-21R-TF1 Neutralization Assay for the binder listed here: scFv L24 (scFv) scFv: QVQLQESGPGLVKTSETLSLTCAVSGYSISSGYYWGWIRQPPGKGLEWIGSISHTGNTYYNPPLKSRVTISVDTSKNQFSLKLSSVTAADTAVYYCARGGGISRPEYWGKGTLVTVSSGGGGSGGGGSGGGGSALSSELTQDPPVSVALGQTVTLTCQGDSLRTYYASWYQQKSGQAPILLLYGKHKRPSGIPDRFSGSTSGDTASLTITGAQAEDEADYYCIARSNKGNPHVLFGGGTQLTVL
Reply: 18.7
